target: hERG (KCNH2) (Homo sapiens, UniProt Q12809); experiment: Displacement of [3H]Astemizole from human ERG expressed in HEK293 cell membranes at 1 uM after 60 mins; conditions: membranes of HEK293 cells that express hERG, probe [3H]Astemizole
Sequence (Q12809 whole entry): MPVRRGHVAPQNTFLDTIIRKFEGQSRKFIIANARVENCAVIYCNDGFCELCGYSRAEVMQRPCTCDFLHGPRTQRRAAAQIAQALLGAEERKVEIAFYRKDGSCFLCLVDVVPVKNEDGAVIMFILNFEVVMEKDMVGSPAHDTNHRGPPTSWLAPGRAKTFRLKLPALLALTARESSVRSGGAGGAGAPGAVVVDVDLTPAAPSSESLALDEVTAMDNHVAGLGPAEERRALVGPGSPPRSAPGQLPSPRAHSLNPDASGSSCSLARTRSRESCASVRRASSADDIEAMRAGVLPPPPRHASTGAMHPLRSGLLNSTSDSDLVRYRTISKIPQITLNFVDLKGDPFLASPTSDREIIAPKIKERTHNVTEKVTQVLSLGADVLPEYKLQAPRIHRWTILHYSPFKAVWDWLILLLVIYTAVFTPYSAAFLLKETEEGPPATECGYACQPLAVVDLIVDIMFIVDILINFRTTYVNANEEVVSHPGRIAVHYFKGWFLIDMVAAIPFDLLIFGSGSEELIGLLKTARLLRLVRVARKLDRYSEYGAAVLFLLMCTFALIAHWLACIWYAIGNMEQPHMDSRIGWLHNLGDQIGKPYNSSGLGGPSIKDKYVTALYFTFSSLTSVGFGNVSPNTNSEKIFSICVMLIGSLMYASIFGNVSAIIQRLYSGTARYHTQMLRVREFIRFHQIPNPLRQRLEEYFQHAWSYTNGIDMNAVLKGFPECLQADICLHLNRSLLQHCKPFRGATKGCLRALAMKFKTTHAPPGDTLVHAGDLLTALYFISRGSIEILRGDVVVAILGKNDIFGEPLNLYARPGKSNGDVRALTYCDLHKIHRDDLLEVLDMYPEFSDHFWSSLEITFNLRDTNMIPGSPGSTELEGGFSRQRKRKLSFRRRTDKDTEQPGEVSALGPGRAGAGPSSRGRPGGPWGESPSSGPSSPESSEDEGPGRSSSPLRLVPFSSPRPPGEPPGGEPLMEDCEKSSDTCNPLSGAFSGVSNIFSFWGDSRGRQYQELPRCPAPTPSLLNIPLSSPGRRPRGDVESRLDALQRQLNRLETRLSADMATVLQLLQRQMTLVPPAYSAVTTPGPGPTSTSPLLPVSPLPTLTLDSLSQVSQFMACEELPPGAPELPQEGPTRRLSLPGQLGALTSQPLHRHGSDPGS
Metric: inhibition at 1 h, 1 µM (%)

> print(dat)
                                smiles.text  meas.value
1  Cn1c(CNc2cccc(C(=O)NCc3ccccc3C(F)(F)F)c2)nnc1-c1ccncc1           9

* * *

target: Protein kinase C alpha type (Homo sapiens)
Metric: IC50

> print(dat)
                                smiles.text  meas.value
1         c1ccc(NCc2nc(-c3ccncc3)n[nH]2)cc1     > 10 µM
2  NS(=O)(=O)c1cccc(NCc2nc(-c3ccncc3)n[nH]2)c1     > 10 µM
3  Cn1c(CNc2cccc(C(=O)NCc3c(F)cccc3F)c2)nnc1-c1ccnc(NCCCc2ccccc2)c1      2.5 µM
4       COc1cccc(NCc2nc(-c3ccncc3)n[nH]2)c1     > 10 µM
5  Cn1c(CNc2cccc(C(=O)NCc3ccccc3C(F)(F)F)c2)nnc1-c1ccncn1     > 10 µM
